test: Cyclic voltammetry of precursors (oxidation and reduction potentials); assay type: physicochemical; settings: 1 mM precursor, 100 mM Na-tartrate buffer pH 4.5, graphite working electrode, Ag/AgCl reference, scan rate 50 mV/s
Kindly supply the reported Er (reduction potential) values for the records listed here.
Provide the reading as a plain figure in mV.

Please look up its Er (reduction potential): Nc1cc(S(=O)(=O)O)cc([N+](=O)[O-])c1O [AHNBS] -92

Entry under review: O=S(=O)([O-])c1ccc2cc(O)ccc2c1.[Na+] [HNSA] . Reported Er (reduction potential)? -144

For the compound shown here, Oc1ccccc1O [Cat, 1,2-dihydroxybenzene] , give the reported Er (reduction potential). 285

Reported Er (reduction potential) for Nc1ccccc1S(=O)(=O)O [Precursor A2SA, aniline-2-sulfonic acid] : what is it? -0.5

Which measured Er (reduction potential) value corresponds to Nc1cc(S(=O)(=O)O)ccc1O [AHBS, 3-amino-4-hydroxybenzenesulfonic acid] ? -103

---

test: Autoxidation of precursors on agar plates without actively growing mycelium (control samples); format: physicochemical; settings: 1 mM precursor in GPA agar, without mycelium; note: key: - no; -/+ - slightly; + high; ++ very high
measured-metric: Precursors autoxidation

Here is how some compounds turned out for Precursors autoxidation.
[
  {
    "compound": "Nc1ncccc1O [Precursor 2A3HP, 2-amino-3-hydroxypyridine]",
    "measured-value": "-/+"
  },
  {
    "compound": "O=S(=O)(O)c1cc(O)c(O)c(S(=O)(=O)O)c1",
    "measured-value": "-"
  },
  {
    "compound": "Nc1ccc(S(=O)(=O)O)c(N)c1",
    "measured-value": "-"
  },
  {
    "compound": "O.O.O.O.Oc1ccccc1-c1ccccc1.[Na] [Precursor 2PP, 2-phenylphenol sodium salt tetrahydrate]",
    "measured-value": "-"
  },
  {
    "compound": "Nc1cc(S(=O)(=O)O)ccc1O [AHBS, 3-amino-4-hydroxybenzenesulfonic acid]",
    "measured-value": "-"
  },
  {
    "compound": "Oc1ccc2ccc(O)cc2c1 [DHN, 2,7-dihydroxynaphtalene]",
    "measured-value": "-/+"
  }
]

May I ask what Precursors autoxidation has been recorded for "O=S(=O)([O-])c1ccc2cc(O)ccc2c1.[Na+]" ? -

Reported Precursors autoxidation for "Nc1cccc(S(=O)(=O)O)c1" : what is it? -

Look at this compound and give its reported Precursors autoxidation. "Nc1ccc(N)c(S(=O)(=O)O)c1" -/+

Find the recorded Precursors autoxidation belonging to "Nc1cc(S(=O)(=O)O)cc([N+](=O)[O-])c1O" and report it. +

---

Kindly state Eo (oxidation potential) for each of the entries shown.
test: Cyclic voltammetry of precursors (oxidation and reduction potentials); format: physicochemical; settings: 1 mM precursor, 100 mM Na-tartrate buffer pH 4.5, graphite working electrode, Ag/AgCl reference, scan rate 50 mV/s
Number in mV, nothing else.

I would be grateful if you could share the reported Eo (oxidation potential) for Nc1ccc(S(=O)(=O)O)c(N)c1 [2,4DABS, 2,4-diaminobenzenesulfonic acid] . 818

Requested field: Eo (oxidation potential). Item: Nc1cccc(S(=O)(=O)O)c1 [Precursor 3ABS, 3-aminobenzenesulfonic acid] 968

Reported Eo (oxidation potential), compound Nc1cccc2c(S(=O)(=O)O)cccc12 [ANS, 5-amino-1-naphthalenesulfonic acid] : ____ 680

Please look up its Eo (oxidation potential): Oc1ccc2ccc(O)cc2c1 [DHN, 2,7-dihydroxynaphtalene] 672

Requested field: Eo (oxidation potential). Item: Nc1ccccc1S(=O)(=O)O [Precursor A2SA, aniline-2-sulfonic acid] 1013

Field request: Eo (oxidation potential) | item: Nc1ccc(N)c(S(=O)(=O)O)c1 [2,5DABS, 2,5-diaminobenzenesulfonic acid] 433

Entry Nc1ccc2cc(S(=O)(=O)O)cc(O)c2c1 [Precursor 6AHNS] has what Eo (oxidation potential)? 499

Requested field: Eo (oxidation potential). Item: O.O.O.O.Oc1ccccc1-c1ccccc1.[Na] [Precursor 2PP, 2-phenylphenol sodium salt tetrahydrate] 790

GET /values?readout=Eo (oxidation potential)&item= Oc1ccccc1O [Cat, 1,2-dihydroxybenzene] 548

Fill in the blank: the reported Eo (oxidation potential) of Nc1ncccc1O [Precursor 2A3HP, 2-amino-3-hydroxypyridine] is ____. 647

Look at this compound and give its reported Eo (oxidation potential). Nc1c(O)cc(S(=O)(=O)O)c2ccccc12 [Precursor 4AHNS] 251

Entry Nc1cc(S(=O)(=O)O)ccc1O [AHBS, 3-amino-4-hydroxybenzenesulfonic acid] : reported Eo (oxidation potential) = ? 518

So what's the measured Eo (oxidation potential) for this one? Nc1cc(S(=O)(=O)O)cc([N+](=O)[O-])c1O [AHNBS] 579

State the recorded Eo (oxidation potential) for this entry: O=S(=O)([O-])c1ccc2cc(O)ccc2c1.[Na+] [HNSA] 893

---

assay: Autoxidation of precursors on agar plates without actively growing mycelium (control samples); assay type: physicochemical; details: 1 mM precursor in GPA agar, without mycelium; note: key: - no; -/+ - slightly; + high; ++ very high
measured-metric: Precursors autoxidation

# annotated cases, reported Precursors autoxidation shown
[
  {
    "compound": "Nc1cccc2c(S(=O)(=O)O)cccc12",
    "measured-value": "-"
  },
  {
    "compound": "Oc1ccccc1O [Cat, 1,2-dihydroxybenzene]",
    "measured-value": "-"
  },
  {
    "compound": "Nc1ccc2cc(S(=O)(=O)O)cc(O)c2c1",
    "measured-value": "-/+"
  },
  {
    "compound": "O.O=C(O)c1cc(S(=O)(=O)O)ccc1O [Precursor 5SSA, 5-sulfosalicylic acid hydrate]",
    "measured-value": "-"
  },
  {
    "compound": "Nc1ccccc1S(=O)(=O)O",
    "measured-value": "-"
  },
  {
    "compound": "O=Cc1ccccc1S(=O)(=O)[O-].[Na+] [Precursor 2FBSA, 2-formylbenzenesulfonic acid sodium salt]",
    "measured-value": "-"
  }
]

Proceeding to the next compound to report its Precursors autoxidation.
Bench note: what Precursors autoxidation did "Nc1c(O)cc(S(=O)(=O)O)c2ccccc12" show? ++
